tested on: Pseudomonas aeruginosa; test: MIC, sole activity (no second agent); type: cell-based; settings: in the absence of Rifampicin; strain CCUG 59626
Where a name gives a salt, the structure may show the parent alone. Bridge positions count the residues as written; N and C are the ends. Square brackets hold non-standard residues; d marks the D form. Peptide text beside a SMILES is read from it. * marks the point of attachment. ξ: configuration not given here. X6 = N[C@@H](CC(=O)*)c1ccc2ccccc2c1; Thr(3ξ) = CC(O)[C@H](N)C(=O)O; Dab = NCC[C@H](N)C(=O)O
Measured Property: MIC P. aeruginosa CCUG 59626 (micrograms/mL)
Give bare numbers, in micrograms/mL.

| Compound | Units Text | MIC P. aeruginosa CCUG 59626 |
| --- | --- | --- |
| CC(C)C[C@@H]1NC(=O)[C@@H](Cc2ccccc2)NC(=O)[C@H](CCN)NC(=O)[C@@H](NC(=O)[C@H](CCN)NC(=O)[C@@H](NC(=O)C[C@H](N)c2ccc3ccccc3c2)C(C)O)CCNC(=O)[C@H](C(C)O)NC(=O)[C@H](CCN)NC(=O)[C@H](CCN)NC1=O (stereo partly drawn) [Example 38, trifluoroacetate salt] (X6-[Thr(3ξ)][Dab][Dab][Dab][dF]L[Dab][Dab][Thr(3ξ)]; lactam 3-C) | micrograms/mL | 0.125 |

# ---- query compound ----
**Q:** Hello, please tell me recorded MIC P. aeruginosa CCUG 59626 for this one: CC(C)C[C@@H]1NC(=O)[C@@H](Cc2ccccc2)NC(=O)[C@H](CCN)NC(=O)[C@@H](NC(=O)[C@H](CCN)NC(=O)[C@@H](NC(=O)C(O)C2CCCCC2)C(C)O)CCNC(=O)[C@H](C(C)O)NC(=O)[C@H](CCN)NC(=O)[C@H](CCN)NC1=O (mixture of isomers)
**A:** 0.25

---

test system: Klebsiella pneumoniae; assay: MIC, compound in combination with a second agent (broth microdilution); format: cell-based; conditions: 1:1 (wt:wt) combination with Rifampicin; MIC = total drug concentration; strain CCUG-59348
Counter-ions that a name gives are not always drawn. Bridge positions count the residues as written; N and C are the ends. Square brackets hold non-standard residues; d marks the D form. Peptide text beside a SMILES is read from it. * marks the point of attachment. ξ: configuration not given here. ξHexahydromandeloyl = O=C(C(O)C1CCCCC1)*; Hyp = O=C(O)[C@@H]1C[C@@H](O)CN1; Thr(3ξ) = CC(O)[C@H](N)C(=O)O; X11 = O=C(C(O)c1cccc(Br)c1)*; Octanoyl = CCCCCCCC(=O)*; Dab = NCC[C@H](N)C(=O)O; Dap = NC[C@H](N)C(=O)O; X4 = NC1CCCC1C(=O)*; GABA = NCCCC(=O)O
Measured Property: MIC K. pneumoniae CCUG-59348 (micrograms/mL)
Numbers only, in micrograms/mL.

Here is how some compounds turned out for MIC K. pneumoniae CCUG-59348.
| Compound | MIC K. pneumoniae CCUG-59348 (micrograms/mL) |
| --- | --- |
| CC(C)C[C@@H]1NC(=O)[C@@H](Cc2ccccc2)NC(=O)[C@H](CCN)NC(=O)[C@@H](NC(=O)[C@H](CN)NC(=O)[C@@H](NC(=O)C(O)C2CCCCC2)C(C)O)CCNC(=O)[C@H](C(C)O)NC(=O)[C@H](CCN)NC(=O)[C@H](CCN)NC1=O (stereo partly drawn) [Example 45, TFA salt] (ξHexahydromandeloyl-[Thr(3ξ)][Dap][Dab][Dab][dF]L[Dab][Dab][Thr(3ξ)]; lactam 3-C) | 1 |
| CC(C)C[C@@H]1NC(=O)[C@@H](Cc2ccccc2)NC(=O)[C@H](CCN)NC(=O)[C@@H](NC(=O)[C@H](CCN)NC(=O)[C@@H](NC(=O)CCCN)C(C)O)CCNC(=O)[C@H](C(C)O)NC(=O)[C@H](CCN)NC(=O)[C@H](CCN)NC1=O (stereo partly drawn) [Example 4, 4-Aminobutanoyl polymyxin B nonapeptide] (H-[GABA][Thr(3ξ)][Dab][Dab][Dab][dF]L[Dab][Dab][Thr(3ξ)]; lactam 4-C) | 16 |
| CC(C)C[C@@H]1NC(=O)[C@@H](Cc2ccccc2)NC(=O)[C@H](CCN)NC(=O)[C@@H](NC(=O)[C@H](CCN)NC(=O)[C@@H](NC(=O)C2CCCC2N)C(C)O)CCNC(=O)[C@H](C(C)O)NC(=O)[C@H](CCN)NC(=O)[C@H](CCN)NC1=O (stereo partly drawn) [Example 7] (X4-[Thr(3ξ)][Dab][Dab][Dab][dF]L[Dab][Dab][Thr(3ξ)]; lactam 3-C) | 4 |

Batch request: MIC K. pneumoniae CCUG-59348 per item, same order as input.
1. CCCCCCCC(=O)N[C@H](C(=O)N[C@H](CO)C(=O)N[C@H]1CCNC(=O)[C@H](C(C)O)NC(=O)[C@H](CCN)NC(=O)[C@H](CCN)NC(=O)[C@H](CC(C)C)NC(=O)[C@@H](Cc2ccccc2)NC(=O)[C@H](CCN)NC1=O)C(C)O (stereo partly drawn) [Example C1, NAB-739 TFA salt, reference compound] (Octanoyl-[Thr(3ξ)][dS][Dab][Dab][dF]L[Dab][Dab][Thr(3ξ)]; lactam 3-C)
2. CC(C)C[C@@H]1NC(=O)[C@@H](Cc2ccccc2)NC(=O)[C@H](CCN)NC(=O)[C@@H](NC(=O)[C@H](CCN)NC(=O)[C@@H](NC(=O)[C@@H]2C[C@@H](O)CN2)C(C)O)CCNC(=O)[C@H](C(C)O)NC(=O)[C@H](CCN)NC(=O)[C@H](CCN)NC1=O (stereo partly drawn) [Example 35, trifluoroacetate salt] (H-[Hyp][Thr(3ξ)][Dab][Dab][Dab][dF]L[Dab][Dab][Thr(3ξ)]; lactam 4-C)
3. CC(C)C[C@@H]1NC(=O)[C@@H](Cc2ccccc2)NC(=O)[C@H](CCN)NC(=O)[C@@H](NC(=O)[C@H](CCN)NC(=O)[C@@H](NC(=O)C(O)c2cccc(Br)c2)C(C)O)CCNC(=O)[C@H](C(C)O)NC(=O)[C@H](CCN)NC(=O)[C@H](CCN)NC1=O (stereo partly drawn) [Example 18] (X11-[Thr(3ξ)][Dab][Dab][Dab][dF]L[Dab][Dab][Thr(3ξ)]; lactam 3-C)

**A:**
4
16
2

---

tested on: Acinetobacter baumannii; assay: MIC, sole activity (no second agent); format: cell-based; conditions: in the absence of Rifampicin; strain NCTC13423
Counter-ions that a name gives are not always drawn. Bridge positions count the residues as written; N and C are the ends. Square brackets hold non-standard residues; d marks the D form. Peptide text beside a SMILES is read from it. * marks the point of attachment. ξ: configuration not given here. ξβ3hGly(cHex) = NC(CC(=O)*)C1CCCCC1; Thr(3ξ) = CC(O)[C@H](N)C(=O)O; Dab = NCC[C@H](N)C(=O)O; X4 = NC1CCCC1C(=O)*; Ahx = NCCCCCC(=O)O; Ava = NCCCCC(=O)O
The threshold is 0.2 micrograms/mL. Values of MIC A. baumannii NCTC 13423 beneath it are tagged criterion met; values meeting or exceeding it are tagged criterion not met.

Sample answers from the record:
| Compound | Target Or Test System | Group Label |
| --- | --- | --- |
| CC(C)C[C@@H]1NC(=O)[C@@H](Cc2ccccc2)NC(=O)[C@H](CCN)NC(=O)[C@@H](NC(=O)[C@H](CCN)NC(=O)[C@@H](NC(=O)CCCCN)C(C)O)CCNC(=O)[C@H](C(C)O)NC(=O)[C@H](CCN)NC(=O)[C@H](CCN)NC1=O (stereo partly drawn) [Example 6, 5-Aminopentanoyl polymyxin B nonapeptide] (H-[Ava][Thr(3ξ)][Dab][Dab][Dab][dF]L[Dab][Dab][Thr(3ξ)]; lactam 4-C) | Acinetobacter baumannii | criterion not met |
| CC(C)C[C@@H]1NC(=O)[C@@H](Cc2ccccc2)NC(=O)[C@H](CCN)NC(=O)[C@@H](NC(=O)[C@H](CCN)NC(=O)[C@@H](NC(=O)CCCCCN)C(C)O)CCNC(=O)[C@H](C(C)O)NC(=O)[C@H](CCN)NC(=O)[C@H](CCN)NC1=O (stereo partly drawn) [Example 2, 6-Aminohexanoyl polymyxin B nonapeptide] (H-[Ahx][Thr(3ξ)][Dab][Dab][Dab][dF]L[Dab][Dab][Thr(3ξ)]; lactam 4-C) | Acinetobacter baumannii | criterion not met |

**Q:** Does the reported MIC A. baumannii NCTC 13423 of CC(C)C[C@@H]1NC(=O)[C@@H](Cc2ccccc2)NC(=O)[C@H](CCN)NC(=O)[C@@H](NC(=O)[C@H](CCN)NC(=O)[C@@H](NC(=O)C2CCCC2N)C(C)O)CCNC(=O)[C@H](C(C)O)NC(=O)[C@H](CCN)NC(=O)[C@H](CCN)NC1=O (stereo partly drawn) [Example 7] (X4-[Thr(3ξ)][Dab][Dab][Dab][dF]L[Dab][Dab][Thr(3ξ)]; lactam 3-C) stay below 0.2 micrograms/mL?
**A:** criterion not met

**Q:** Does the reported MIC A. baumannii NCTC 13423 of CC(C)C[C@@H]1NC(=O)[C@@H](Cc2ccccc2)NC(=O)[C@H](CCN)NC(=O)[C@@H](NC(=O)[C@H](CCN)NC(=O)[C@@H](NC(=O)CC(N)C2CCCCC2)C(C)O)CCNC(=O)[C@H](C(C)O)NC(=O)[C@H](CCN)NC(=O)[C@H](CCN)NC1=O (stereo partly drawn) [Example 10] ({ξβ3hGly(cHex)}-[Thr(3ξ)][Dab][Dab][Dab][dF]L[Dab][Dab][Thr(3ξ)]; lactam 3-C) stay below 0.2 micrograms/mL?
**A:** criterion met

**Q:** Does the reported MIC A. baumannii NCTC 13423 of CC(C)C[C@@H]1NC(=O)[C@@H](Cc2ccccc2)NC(=O)[C@H](CCN)NC(=O)[C@@H](NC(=O)[C@@H](CO)NC(=O)[C@@H](NC(=O)CC(N)C2CCCCC2)[C@@H](C)O)CCNC(=O)[C@H](C(C)O)NC(=O)[C@H](CCN)NC(=O)[C@H](CCN)NC1=O (stereo partly drawn) [Example 48, TFA salt] ({ξβ3hGly(cHex)}-T[dS][Dab][Dab][dF]L[Dab][Dab][Thr(3ξ)]; lactam 3-C) stay below 0.2 micrograms/mL?
**A:** criterion not met

**Q:** Does the reported MIC A. baumannii NCTC 13423 of CC(C)C[C@@H]1NC(=O)[C@@H](Cc2ccccc2)NC(=O)[C@H](CCN)NC(=O)[C@@H](NC(=O)[C@H](CCN)NC(=O)[C@@H](NC(=O)[C@H](CCN)NC(=O)CC(N)C2CCCCC2)C(C)O)CCNC(=O)[C@H](C(C)O)NC(=O)[C@H](CCN)NC(=O)[C@H](CCN)NC1=O (mixture of isomers) [Example 39, trifluoroacetate salt] stay below 0.2 micrograms/mL?
**A:** criterion not met
